target: Bombesin receptor subtype-3 (Homo sapiens); experiment: Agonist activity at human BRS3 expressed in HEK293 cells expressing aequorin measured for 30 secs by bioluminescence assay; assay type: functional, cell-based
Sequence (P32247 whole entry): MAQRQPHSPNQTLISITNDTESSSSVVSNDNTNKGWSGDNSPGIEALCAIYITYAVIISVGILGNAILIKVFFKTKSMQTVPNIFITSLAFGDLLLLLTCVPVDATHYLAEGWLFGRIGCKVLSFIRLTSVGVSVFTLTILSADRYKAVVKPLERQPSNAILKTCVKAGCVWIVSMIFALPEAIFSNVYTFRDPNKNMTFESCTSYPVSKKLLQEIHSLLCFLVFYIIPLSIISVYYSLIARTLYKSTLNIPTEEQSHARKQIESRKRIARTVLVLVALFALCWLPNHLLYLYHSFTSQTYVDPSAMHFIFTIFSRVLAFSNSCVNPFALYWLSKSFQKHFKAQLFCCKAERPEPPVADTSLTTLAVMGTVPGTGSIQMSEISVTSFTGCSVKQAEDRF
readout-type: EC50 (nM)

Some solved cases for reference:
1. Cc1ccc2c(n1)N(S(=O)(=O)c1ccc(C(C)(C)C)cc1)Cc1ccc(C(F)(F)F)nc1N2	110
2. Cc1ccc2c(c1C)N(S(=O)(=O)c1ccc(C(F)(F)F)s1)Cc1ccc(C(F)(F)F)nc1N2	158

I: Cc1ccc2c(c1C)N(S(=O)(=O)c1ccc(C(C)(C)C)cc1)Cc1ccc(Cl)nc1N2
II: Cc1ccc2c(c1C)N(S(=O)(=O)c1ccc(S(C)(=O)=O)cc1)Cc1ccc(C(F)(F)F)nc1N2
Q: Could you check which of I and II has a smaller value for EC50? Your choice should be expressed through its label.
A: I
(I: 38 nM, II: 543 nM)
